Test system: ovarian carcinoma line (A2780/cp8) with resistance to cisplatinum
Experiment: Inhibition of in vitro proliferation of human tumor cells, A2780/cp8
Assay type: cell-based
Details: 72 hours treatment, cisplatinum-resistant line; read-out: Inhibitory concentrations (IC50) A2780/cp8
Reported endpoint: IC50

> print(dat)
                                   compound  result
1  COC(C)=N.N.[Cl][Pt][Cl] [Compound 2, trans-[PtCl2(NH3){E-HN═C(OMe)Me}]]  8.6 µM
2  COC(C)=N.N.[Cl][Pt][Cl] [Compound 1, trans-[PtCl2(NH3){Z-HN═C(OMe)Me}]]   35 µM
